meta.source: patent US20070072897A1

Target: human hNET (Homo sapiens, UniProt P23975)
Sequence (P23975 whole entry): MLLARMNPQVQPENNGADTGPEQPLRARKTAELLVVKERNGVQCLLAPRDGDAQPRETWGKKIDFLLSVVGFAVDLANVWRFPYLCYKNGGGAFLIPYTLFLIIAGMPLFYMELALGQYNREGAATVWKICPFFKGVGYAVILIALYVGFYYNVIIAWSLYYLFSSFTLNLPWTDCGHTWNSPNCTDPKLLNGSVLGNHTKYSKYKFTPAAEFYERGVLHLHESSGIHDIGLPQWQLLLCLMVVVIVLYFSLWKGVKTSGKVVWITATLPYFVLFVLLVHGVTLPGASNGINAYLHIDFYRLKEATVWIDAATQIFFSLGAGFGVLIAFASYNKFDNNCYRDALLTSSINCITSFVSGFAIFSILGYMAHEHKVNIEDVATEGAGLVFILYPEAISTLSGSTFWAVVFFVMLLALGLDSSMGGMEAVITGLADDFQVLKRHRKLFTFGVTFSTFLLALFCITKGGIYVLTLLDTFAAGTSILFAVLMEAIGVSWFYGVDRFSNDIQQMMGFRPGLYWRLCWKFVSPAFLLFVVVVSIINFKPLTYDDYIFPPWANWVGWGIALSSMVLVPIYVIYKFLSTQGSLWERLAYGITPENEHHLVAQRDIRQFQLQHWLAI
Test: Norepinephrine (NE) uptake assay in MDCK-Net6 cells
Conditions: [3H]NE uptake, MDCK-Net6 cells stably transfected with hNET
Structures can show the parent of a compound that is named as a salt.
RESULT TYPE: pEC50
Please treat pEC50 as minus the base-10 logarithm of the molar concentration.

[in] Form: Entry = CNC[C@@H](O)[C@H](c1ccccc1)N1CCc2cc(NC(=O)c3ccccc3)ccc21 [Example 74, hydrochloride] | System = human hNET (Homo sapiens, UniProt P23975) | pEC50 = ____
[out] 6.44

[in] Queued: CNC[C@@H](O)[C@H](c1ccccc1)N1C(=O)C2(CCCCC2)c2cc(C#N)ccc21 [Example 107, hydrochloride]
[out] 6.46

[in] Queued: CNC[C@@H](O)[C@H](c1cccc(Cl)c1)N1C(=O)C2(CCCCC2)c2ccc(F)cc21 [Example 111, hydrochloride]
[out] 6.73

[in] Queued: CNC[C@@H](O)[C@H](c1ccccc1)N1C(=O)C2(CCCCC2)c2cc(F)ccc21 [Example 30, hydrochloride]
[out] 7.39

[in] Queued: CNC[C@@H](O)[C@H](c1ccccc1)N1C(=O)C2(CCCCC2)c2ccc(OC)cc21 [Example 106, hydrochloride]
[out] 6.04

[in] Queued: CNC[C@@H](O)[C@H](c1ccccc1)N1C(=O)C(C)(C)c2cc(OCc3ccccc3)ccc21 [Example 68, hydrochloride]
[out] 6.62

[in] Queued: CNC[C@@H](O)[C@H](c1cccc(F)c1)n1cc(-c2ccc(Cl)cc2Cl)c2ccccc21 [Example 41, hydrochloride]
[out] 6.71

* * *

Would you mind telling me the reported pEC50 of each entry?
Target: human hNET (Homo sapiens, UniProt P23975)
Assay: Norepinephrine (NE) uptake assay in MDCK-Net6 cells
Settings: [3H]NE uptake, MDCK-Net6 cells stably transfected with hNET
Structures can show the parent of a compound that is named as a salt.
Please treat pEC50 as minus the base-10 logarithm of the molar concentration.

[in] Any idea what pEC50 was measured for CNC[C@@H](O)[C@H](c1ccccc1)n1ccc2cc(OCc3ccccc3Cl)ccc21 [Example 8, hydrochloride] ?
[out] 6.83

[in] Queued: CNC[C@@H](O)[C@H](c1ccccc1)n1ccc2cc(NC(=O)c3cccc(Cl)c3)ccc21 [Example 73, hydrochloride]
[out] 7.04

[in] Queued: CNC[C@@H](O)[C@H](c1ccccc1)N1CCc2cc(C(=O)Nc3cccc(Cl)c3)ccc21 [Example 78, hydrochloride]
[out] 6.44

[in] Queued: CNC[C@@H](O)[C@H](c1cc(F)cc(Cl)c1)N1C(=O)C(C)(C)c2cccc(F)c21 [Example 112, hydrochloride]
[out] 8.70

[in] Queued: CNC[C@@H](O)[C@H](c1ccccc1)n1ccc2cc(C)nc(Cl)c21 [Example 44, hydrochloride]
[out] 6.38

[in] Queued: CNC[C@@H](O)[C@H](c1cccc(F)c1)N1C(=O)C(C)(C)c2cc(F)cc(F)c21 [Example 63, hydrochloride]
[out] 7.29

[in] Queued: CNC[C@@H](O)[C@H](c1cccc(F)c1)N1C(=O)C(C)(C)c2ccc(F)cc21 [Example 118, hydrochloride]
[out] 7.40

[in] Queued: CNC[C@@H](O)[C@H](c1cccc(F)c1)N1C(=O)C2(CCCCC2)c2cccc(F)c21 [Example 110, hydrochloride]
[out] 8.22

[in] Queued: CNC[C@@H](O)[C@H](c1ccccc1)n1ccc2cc(OCc3ccc(F)cc3)ccc21 [Example 13, hydrochloride]
[out] 7.51

[in] Queued: CNC[C@@H](O)[C@H](c1ccccc1)n1ccc2cc(OCc3ccccc3F)ccc21 [Example 11, hydrochloride]
[out] 7.28

[in] Queued: CNC[C@@H](O)[C@H](c1ccccc1)n1ccc2cc(OC(C)c3ccccc3)ccc21 (mixture of isomers) [Example 17, hydrochloride]
[out] 6.06

[in] Queued: CNC[C@@H](O)[C@H](c1ccccc1)N1C(=O)C2(CCCCC2)c2ccc(C#N)cc21 [Example 108, hydrochloride]
[out] 5.90

[in] Queued: CNC[C@@H](O)[C@H](c1ccccc1)N1C(=O)C2(CCCCC2)c2ccc(Cl)cc21 [Example 28, hydrochloride]
[out] 6.35

[in] Queued: CNC[C@@H](O)[C@H](c1ccccc1)n1ccc2cc(NC(=O)c3ccc(C)c(Cl)c3)ccc21 [Example 71, hydrochloride]
[out] 7.04
